Record: AC50 reported on Alpha-2A adrenergic receptor (Homo sapiens, UniProt P08913).
Sequence (P08913 whole entry): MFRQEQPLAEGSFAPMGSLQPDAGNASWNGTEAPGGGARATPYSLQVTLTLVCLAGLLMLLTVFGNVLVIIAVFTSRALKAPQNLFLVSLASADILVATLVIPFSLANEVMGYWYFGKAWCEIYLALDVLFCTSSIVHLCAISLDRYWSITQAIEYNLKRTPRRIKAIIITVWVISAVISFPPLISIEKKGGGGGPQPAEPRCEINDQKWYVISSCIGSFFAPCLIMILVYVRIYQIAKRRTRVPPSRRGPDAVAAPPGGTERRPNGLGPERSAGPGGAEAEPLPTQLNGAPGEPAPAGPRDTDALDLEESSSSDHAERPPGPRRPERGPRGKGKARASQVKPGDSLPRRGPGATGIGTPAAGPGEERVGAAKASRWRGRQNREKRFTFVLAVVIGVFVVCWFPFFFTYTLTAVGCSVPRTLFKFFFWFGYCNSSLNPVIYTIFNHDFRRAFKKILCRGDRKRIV
quantity kind: AC50

>>> value("CCOc1ccccc1C(N)=O [ETHENZAMIDE]")
"> 30 µM"
>>> value("CC(=O)Nc1ccc(O)cc1 [ACETAMINOPHEN]")
"> 30 µM"
>>> value("CC[C@H]1[C@@H](O)[C@@H]2[C@H](CC[C@]3(C)[C@@H]([C@H](C)CCC(=O)O)CC[C@@H]23)[C@@]2(C)CC[C@@H](O)C[C@@H]12 [OBETICHOLIC ACID]")
"> 30 µM"
>>> value("Nc1ccc(S(=O)(=O)c2cnc(N)s2)cc1 [THIAZOLSULFONE]")
"> 30 µM"
>>> value("CCC1=C(C)CN(C(=O)NCCc2ccc(S(=O)(=O)NC(=O)N[C@H]3CC[C@H](C)CC3)cc2)C1=O [GLIMEPIRIDE]")
"> 30 µM"
>>> value("Clc1ccc(C(OCCN2CCCCC2)c2ccccc2)cc1 (stereo not drawn) [CLOPERASTINE]")
"2.72 µM"
>>> value("CC[C@]1(O)C[C@H]2CN(CCc3c([nH]c4ccccc34)[C@@](C(=O)OC)(c3cc4c(cc3OC)N(C=O)[C@H]3[C@@](O)(C(=O)OC)[C@H](OC(C)=O)[C@]5(CC)C=CCN6CC[C@]43[C@@H]65)C2)C1 [VINCRISTINE]")
"> 30 µM"
>>> value("NC(=O)C[C@H](N)C(=O)O [ASPARAGINE]")
"> 30 µM"
>>> value("CCOC(=O)[C@H](CCc1ccccc1)N[C@@H](C)C(=O)N1CC2(C[C@H]1C(=O)O)SCCS2")
"> 30 µM"
>>> value("O=c1[nH]c(=O)n(C2CCCO2)cc1F (stereo not drawn) [TEGAFUR]")
"> 30 µM"
>>> value("C[C@]12CC[C@@H]3c4ccc(O)cc4CC[C@H]3[C@@H]1C[C@@H](O)[C@@H]2O [ESTRIOL]")
"> 30 µM"
>>> value("CC(C)C[C@H]1C(=O)N2CCC[C@H]2[C@]2(O)O[C@](NC(=O)[C@@H]3C[C@@H]4c5cccc6[nH]cc(c56)C[C@H]4N(C)C3)(C(C)C)C(=O)N12 [DIHYDROERGOCRYPTINE]")
"0.847 µM"
>>> value("CCC(CC)(CC(=O)Nc1cccc(/C=C/c2nc(C3CCC3)cs2)c1)C(=O)O")
"> 30 µM"
>>> value("Cc1cc(C#N)cc(C)c1Oc1nc(Nc2ccc(C#N)cc2)nc(N)c1Br [ETRAVIRINE]")
"20 µM"
>>> value("COc1ccc(C(=O)Nc2ccccc2CCC2CCCCN2C)cc1 (stereo not drawn) [ENCAINIDE]")
"> 30 µM"
>>> value("COc1ccccc1N1CCN(CC(O)COc2cccc3ccccc23)CC1 (stereo not drawn) [NAFTOPIDIL]")
"0.29 µM"
>>> value("OC[C@@H](O)[C@H](O)[C@@H](O)CO [XYLITOL]")
"> 30 µM"
>>> value("O=C(Oc1ccc2c(c1)CCCN2C(=O)C(Cl)Cl)c1ccco1 [QUINFAMIDE]")
"> 30 µM"
>>> value("COCCCN1CCC(NC(=O)c2cc(Cl)c(N)c3c2OCC3)CC1 [PRUCALOPRIDE]")
"> 30 µM"
>>> value("CN(C)CCN1C(=O)c2ccccc2N(C)c2ccccc21 [DIBENZEPIN]")
"9.47 µM"
>>> value("CC(C)(C)NC[C@H](O)COc1ccccc1C1CCCC1 [PENBUTOLOL]")
"0.966 µM"
>>> value("CC[C@H]1OC(=O)[C@H](C)[C@@H](O[C@H]2C[C@@](C)(OC)[C@@H](O)[C@H](C)O2)[C@H](C)[C@@H](O[C@@H]2O[C@H](C)C[C@H](N(C)C)[C@H]2O)[C@](C)(O)C[C@@H](C)CN(C)[C@H](C)[C@@H](O)[C@]1(C)O [AZITHROMYCIN]")
"> 30 µM"
>>> value("CCc1oc2ccccc2c1C(=O)c1cc(I)c(O)c(I)c1 [BENZIODARONE]")
"29.9 µM"

* * *

system under test: 5-hydroxytryptamine receptor 2B (Homo sapiens); also: assay procedure not described here
Sequence (P41595 whole entry): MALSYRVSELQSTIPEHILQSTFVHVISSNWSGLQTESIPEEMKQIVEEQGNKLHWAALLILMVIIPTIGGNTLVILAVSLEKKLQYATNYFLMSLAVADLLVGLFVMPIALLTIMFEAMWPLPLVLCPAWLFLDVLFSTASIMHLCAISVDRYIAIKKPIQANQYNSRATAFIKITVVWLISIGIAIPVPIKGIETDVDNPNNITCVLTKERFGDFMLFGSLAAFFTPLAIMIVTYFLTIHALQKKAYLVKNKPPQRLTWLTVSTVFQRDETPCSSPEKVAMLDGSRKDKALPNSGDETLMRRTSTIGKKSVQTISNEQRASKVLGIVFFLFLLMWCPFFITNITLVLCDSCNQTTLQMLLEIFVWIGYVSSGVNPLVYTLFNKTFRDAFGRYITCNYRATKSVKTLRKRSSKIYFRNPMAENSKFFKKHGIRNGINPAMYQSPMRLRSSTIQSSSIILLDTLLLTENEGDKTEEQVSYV
Format: functional, cell-based
This listing pairs molecules with measured AC50.
quantity kind: AC50

>>> value("CN1C(=O)C(O)N=C(c2ccccc2)c2cc(Cl)ccc21 (centres undefined) [TEMAZEPAM]")
"> 10 µM"
>>> value("Cc1ccc(S(=O)(=O)NC(=O)NN2CC3CCCC3C2)cc1 (centres undefined) [GLICLAZIDE]")
"> 10 µM"
>>> value("CC(CC1c2ccccc2CCc2ccccc21)CN(C)C (centres undefined) [BUTRIPTYLINE]")
"> 30 µM"
>>> value("CC(C)=CCC/C(C)=C/C=C/C(C)=C/C=C/C(C)=C/C=C/C=C(C)/C=C/C=C(C)/C=C/C=C(\\C)CCC=C(C)C [LYCOPENE]")
"> 30 µM"
>>> value("Fc1ccc(C(c2ccccc2)(c2ccccc2F)n2ccnc2)cc1 (centres undefined) [FLUTRIMAZOLE]")
"> 30 µM"
>>> value("Cc1cccc(C(C)c2cnc[nH]2)c1C (centres undefined) [MEDETOMIDINE]")
"> 30 µM"
>>> value("Cc1cc(C)c(NC(=O)CN(CC(=O)O)CC(=O)O)c(C)c1Br [MEBROFENIN]")
"> 30 µM"
>>> value("NCC[C@H](O)C(=O)N[C@@H]1C[C@H](N)[C@@H](O[C@H]2O[C@H](CN)[C@@H](O)[C@H](O)[C@H]2O)[C@H](O)[C@H]1O[C@H]1O[C@H](CO)[C@@H](O)[C@H](N)[C@H]1O [AMIKACIN]")
"> 10 µM"
>>> value("O=C(O)C[C@H](O)C[C@H](O)/C=C/c1c(C2CC2)nc2ccccc2c1-c1ccc(F)cc1 [PITAVASTATIN]")
"> 10 µM"

* * *

system under test: Voltage-gated inwardly rectifying potassium channel KCNH2 (Homo sapiens); also: assay procedure not described here
Sequence (Q12809 whole entry): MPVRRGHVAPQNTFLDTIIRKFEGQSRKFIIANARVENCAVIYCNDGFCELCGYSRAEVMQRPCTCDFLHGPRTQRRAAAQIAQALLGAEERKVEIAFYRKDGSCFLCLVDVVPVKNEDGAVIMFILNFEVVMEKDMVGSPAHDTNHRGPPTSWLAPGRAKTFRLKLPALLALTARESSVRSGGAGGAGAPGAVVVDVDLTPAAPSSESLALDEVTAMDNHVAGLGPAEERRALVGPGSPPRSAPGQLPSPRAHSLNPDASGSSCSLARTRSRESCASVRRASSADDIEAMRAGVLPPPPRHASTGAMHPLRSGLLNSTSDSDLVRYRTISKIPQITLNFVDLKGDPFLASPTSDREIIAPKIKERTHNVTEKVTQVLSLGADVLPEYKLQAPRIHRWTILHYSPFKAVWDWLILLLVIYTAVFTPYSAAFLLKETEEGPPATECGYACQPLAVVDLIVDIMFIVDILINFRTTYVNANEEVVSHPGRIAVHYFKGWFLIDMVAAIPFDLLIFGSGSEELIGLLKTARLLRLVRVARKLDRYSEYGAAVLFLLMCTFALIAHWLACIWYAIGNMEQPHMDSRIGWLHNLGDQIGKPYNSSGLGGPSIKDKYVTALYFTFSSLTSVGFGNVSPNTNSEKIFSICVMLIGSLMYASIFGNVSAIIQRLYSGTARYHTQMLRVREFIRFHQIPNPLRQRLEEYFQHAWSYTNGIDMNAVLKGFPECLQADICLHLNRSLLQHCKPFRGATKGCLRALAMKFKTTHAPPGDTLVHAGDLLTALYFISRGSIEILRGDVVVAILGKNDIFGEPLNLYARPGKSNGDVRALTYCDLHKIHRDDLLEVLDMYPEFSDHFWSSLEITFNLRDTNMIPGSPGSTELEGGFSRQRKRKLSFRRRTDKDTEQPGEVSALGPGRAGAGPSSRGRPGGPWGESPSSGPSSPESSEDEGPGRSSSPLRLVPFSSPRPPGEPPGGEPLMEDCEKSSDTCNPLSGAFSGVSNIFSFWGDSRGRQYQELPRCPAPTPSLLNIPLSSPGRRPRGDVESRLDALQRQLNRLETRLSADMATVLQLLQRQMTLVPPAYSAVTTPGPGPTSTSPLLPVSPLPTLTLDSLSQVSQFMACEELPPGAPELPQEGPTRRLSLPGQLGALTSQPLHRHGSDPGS
Format: functional
settings: read-out: AC50; also: assay procedure not described here
quantity kind: AC50

>>> value("COc1ccc2c3c1O[C@H]1[C@@H](O)C=C[C@H]4[C@@H](C2)N(C)CC[C@@]341")
"> 30 µM"
>>> value("COc1ccc(CC(C)(C)NC[C@H](O)c2cc(O)cc3c2OCC(=O)N3)cc1")
"6.3 µM"
>>> value("c1cnc(N2CCN(Cc3ccc4c(c3)OCO4)CC2)nc1")
"19 µM"
>>> value("CCOC(=O)[C@H](CCc1ccccc1)N[C@@H](C)C(=O)N1[C@H](C(=O)O)C[C@@H]2CCC[C@@H]21")
"> 30 µM"
>>> value("Cc1ccc(-n2nccn2)c(C(=O)N2CCN(c3nc4cc(Cl)ccc4o3)CC[C@H]2C)c1")
"22 µM"
>>> value("NC(=O)CN1CC(O)CC1=O (stereo not given)")
"> 30 µM"
>>> value("O=C(Cc1ccc(-c2ccccc2)cc1)Nc1ccccn1 [DIFENPIRAMIDE]")
"> 30 µM"
>>> value("Cc1nc([N+](=O)[O-])cn1-c1ccc([N+](=O)[O-])cc1")
"> 30 µM"
>>> value("N#Cc1ccc([C@H]2CCc3cncn32)c(F)c1")
"19.7 µM"
>>> value("O=P1(NCCCl)OCCCN1CCCl (stereo not given) [IFOSFAMIDE]")
"> 30 µM"
>>> value("CNC(C)CCC=C(C)C (stereo not given)")
"> 30 µM"
>>> value("CCCC1O[C@@H]2C[C@H]3[C@@H]4CCC5=CC(=O)C=C[C@]5(C)[C@H]4[C@@H](O)C[C@]3(C)[C@]2(C(=O)CO)O1 (stereo not given in full) [BUDESONIDE]")
"> 30 µM"
>>> value("CO/N=C(\\C(=O)N[C@@H]1C(=O)N2C(C(=O)O)=C(CSc3nnnn3C)CS[C@H]12)c1csc(N)n1")
"> 30 µM"
>>> value("CCOC(=O)[C@H](CCc1ccccc1)N[C@@H](C)C(=O)N1[C@H](C(=O)O)C[C@H]2CCCC[C@@H]21")
"> 30 µM"
>>> value("CN(C)CC(c1ccc(O)cc1)C1(O)CCCCC1 (stereo not given)")
"> 30 µM"

* * *

system under test: Prostaglandin G/H synthase 1 (Homo sapiens); also: assay procedure not described here
Sequence (P23219 whole entry): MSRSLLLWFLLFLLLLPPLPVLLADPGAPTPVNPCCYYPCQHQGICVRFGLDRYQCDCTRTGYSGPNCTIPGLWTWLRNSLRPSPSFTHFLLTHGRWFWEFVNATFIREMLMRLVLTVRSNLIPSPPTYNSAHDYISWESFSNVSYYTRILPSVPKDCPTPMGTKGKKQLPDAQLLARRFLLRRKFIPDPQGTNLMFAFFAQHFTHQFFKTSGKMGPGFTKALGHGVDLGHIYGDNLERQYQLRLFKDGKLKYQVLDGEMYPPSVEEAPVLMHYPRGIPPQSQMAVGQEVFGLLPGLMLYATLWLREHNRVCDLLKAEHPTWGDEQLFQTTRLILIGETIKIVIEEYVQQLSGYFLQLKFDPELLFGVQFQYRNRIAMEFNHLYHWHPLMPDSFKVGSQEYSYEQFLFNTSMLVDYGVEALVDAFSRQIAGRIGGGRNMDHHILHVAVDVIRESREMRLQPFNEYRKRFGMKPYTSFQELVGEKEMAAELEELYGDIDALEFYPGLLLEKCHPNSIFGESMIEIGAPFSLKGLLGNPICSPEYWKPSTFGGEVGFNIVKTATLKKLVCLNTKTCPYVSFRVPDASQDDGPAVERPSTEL
Format: functional
quantity kind: AC50

>>> value("O=C(O)c1ccccc1C(=O)Nc1ccc(S(=O)(=O)Nc2nccs2)cc1")
"20 µM"
>>> value("NCC(CC(=O)O)c1ccc(Cl)cc1 (stereo unspecified)")
"> 30 µM"
>>> value("CCOc1ccccc1OCC1CNCCO1 (stereo unspecified)")
"> 30 µM"
>>> value("CCCCCNC(=N)N/N=C/c1c[nH]c2ccc(OC)cc12")
"2.65 µM"
>>> value("CCOC(=O)[C@H](CCc1ccccc1)N[C@@H](C)C(=O)N1CC2(C[C@H]1C(=O)O)SCCS2")
"> 30 µM"
>>> value("CCC(=O)NCC[C@@H]1CCc2ccc3c(c21)CCO3")
"> 30 µM"
>>> value("COc1cc([C@@H]2c3cc4c(cc3[C@H](O)[C@H]3COC(=O)[C@H]23)OCO4)cc(OC)c1OC")
"> 30 µM"
>>> value("C[S+](CC[C@H](N)C(=O)[O-])C[C@H]1O[C@@H](n2cnc3c(N)ncnc32)[C@H](O)[C@@H]1O (stereo partly specified)")
"> 30 µM"
>>> value("Cc1oc(=O)oc1CN1CCN(c2cc3c(cc2F)c(=O)c(C(=O)O)c2n3C(C)S2)CC1 (stereo unspecified)")
"> 30 µM"
>>> value("COCCCN1CCC(NC(=O)c2cc(Cl)c(N)c3c2OCC3)CC1 [PRUCALOPRIDE]")
"> 30 µM"
>>> value("O=c1[nH]c(=O)n([C@H]2C[C@H](O)[C@@H](CO)O2)cc1I")
"> 30 µM"
>>> value("N[C@H]1C(O)O[C@H](CO)[C@@H](O)[C@@H]1O (stereo partly specified)")
"> 30 µM"
>>> value("CCN(CC)CCOC(=O)C(c1ccccc1)C1CCCCC1 (stereo unspecified)")
"> 30 µM"
>>> value("CC(C)(C)N1CCC(c2ccccc2)(c2ccccc2)CC1")
"> 30 µM"
>>> value("Nc1ccc2cc3ccc(N)cc3nc2c1")
"5.49 µM"
>>> value("CO[C@]12C[C@@H](COC(=O)c3cncc(Br)c3)CN(C)[C@@H]1Cc1cn(C)c3cccc2c13")
"> 30 µM"
